TEST TARGET: T1, rhNav1.7α + β1-β2-β3 (rhesus monkey)
T1 construct: also called rhNav1.7-beta1-beta2-beta3; rhNav1.7-β1-β2-β3
MEASUREMENT DESCRIPTION: binding FACS, CHO FlpIn
TEST READOUT: pEC50
pEC50 here is simply -log10 of the concentration when that concentration is written in mol/L.

Tell me pEC50 reported for F010302364 (VHH) VHH: EVQLVESGGGVVQPGGSLRLSCAASHRAFIRDLFTGWYRQAPGKQRELVARIYESGNTNYADSVKGRFTISRDNAKKTVYLQMNSLRPEDTALYYCLFSGTISTGREYRSGDYWGQGTLVTVSS
7.77

Give reported pEC50 value for F010302353 (VHH) VHH: EVQLVESGGGVVQPGGSLRLSCAASHRQFIRDVFTGWYRRAPGKQRELVARIYEGGNTQYADSVKGRFTISRDNAKKTVYLQMNSLRPEDTALYYCLFSGTISTGREYRSGDYWGQGTLVTVSS
8.10

Write down pEC50 measured for item F010302340 (VHH) VHH: EVQLVESGGGVVQPGGSLRLSCAASHRAFIRDLFTGWYRRAPGKQRELVARIYESGNTNYADSAKGRFTISRDNAKKTVYLQMNSLRPEDTALYYCLFSGTISTGREYRSGDYWGQGTLVTVSS
7.89

// fetch pEC50 given entry F010302363 (VHH) VHH: EVQLVESGGGVVQPGGSLRLSCAASHRAFIRDVFTGWYRQAPGKQRELVARIYEGGNTQYADSVKGRFTISRDNAKKTVYLQMNSLRPEDTALYYCLFSGTISTGREYRSGDYWGQGTLVTVSS
8.03

Return value of pEC50 for input F010302334 (VHH) VHH: EVQLVESGGGVVQPGGSLRLSCAASSRQFIRDVFTGWYRRAPGKQRELVARIYNEGNTQYADSAKGRFTISRDNAKKTVYLQMNSLRPEDTALYYCLFSGTISTGREYRSGDYWGQGTLVTVSS , no commentary.
7.96

Give a short answer stating reported pEC50 for F010301877 (VHH, also called F0103464B09(L11V, S68T, K76N, T79Y, R81Q, S82aN, N82bS, K83R, G88A, V89L)) VHH: EVQLVESGGGVVQPGGSLRLSCATTSRAFIRDVFTGWYRRVPGKERELVARIYNGGNTNYADFAKGRFTISRDNAKNMVYLQMNSLRPEDTALYYCLFSGTINTGREYRSGDYWGQGTLVTVSS .
7.02

Hello, please tell me recorded pEC50 for this one: F010302355 (VHH) VHH: EVQLVESGGGVVQPGGSLRLSCAASHRAFIRDVFTGWYRRAPGKQRELVARIYEGGNTQYADSVKGRFTISRDNAKKTVYLQMNSLRPEDTALYYCLFSGTISTGREYRSGDYWGQGTLVTVSS
8.17

Specify pEC50 for F010302337 (VHH) VHH: EVQLVESGGGVVQPGGSLRLSCAASHRQFIRDVFTGWYRRAPGKQRELVARIYEGGNTQYADSAKGRFTISRDNAKKTVYLQMNSLRPEDTALYYCLFSGTISTGREYRSGDYWGQGTLVTVSS and stop.
8.17
